# testName: Inhibition of HCV NS3 protease by fluorescence plate reader
# Set-up: species or system Hepacivirus hominis
pKi: −log10 of the molar value.
parameterMeasured: pKi

Would you please look over these solved cases?
INSERT INTO measurements (chemicalsmiles, parametermeasured, resultnumber) VALUES
  ('COc1ccc2c(O[C@@H]3C[C@@H](C(=O)NC4(C(=O)C(=O)O)CC4)N(C(=O)[C@@H](NC(=O)OC(C)(C)C)C(C)C)C3)cc(-c3ccccc3)nc2c1', 'pKi', 6.00),
  ('COc1ccc2c(O[C@@H]3C[C@@H](C(=O)NC4(CC(=O)O)CC4)N(C(=O)[C@@H](NC(=O)OC(C)(C)C)C(C)C)C3)cc(-c3ccccc3)nc2c1', 'pKi', 4.74),
  ('COc1ccc2c(O[C@@H]3C[C@@H](C(=O)NC4(CC(=O)NS(=O)(=O)c5ccccc5)CC4)N(C(=O)[C@@H](NC(=O)OC(C)(C)C)C(C)C)C3)cc(-c3ccccc3)nc2c1', 'pKi', 4.85);

a = COc1ccc2c(O[C@@H]3C[C@@H](C(=O)NC4(C(=O)NS(=O)(=O)c5ccccc5)CC4)N(C(=O)C[C@@H](NC(=O)OC(C)(C)C)C(C)C)C3)cc(-c3ccccc3)nc2c1
b = COc1ccc2c(O[C@@H]3C[C@@H](C(=O)NC4(C(=O)O)CC4)N(C(=O)C[C@@H](NC(=O)OC(C)(C)C)C(C)C)C3)cc(-c3ccccc3)nc2c1
c = COc1ccc2c(O[C@@H]3C[C@@H](CC(=O)NC4(C(=O)O)CC4)N(C(=O)[C@@H](NC(=O)OC(C)(C)C)C(C)C)C3)cc(-c3ccccc3)nc2c1
Order these by pKi, descending, and give the full ranking. State the ranking by listing the labels in the requested order.
a, b, c

###

# testName: Inhibition of HCV NS3 protease by fluorescence plate reader
# Set-up: species or system Hepacivirus hominis
pKi: −log10 of the molar value.
parameterMeasured: pKi

INSERT INTO measurements (chemicalsmiles, resultnumber) VALUES
  ('COc1ccc2c(O[C@@H]3C[C@@H](C(=O)NC4(C(=O)NS(=O)(=O)c5ccccc5)CC4)N(C(=O)[C@@H](NC(=O)OC(C)(C)C)C(C)C)C3)cc(-c3ccccc3)nc2c1', 7.26);

a = COc1ccc2c(O[C@@H]3C[C@@H](C(=O)NC4(C(=O)O)CC4)N(C(=O)[C@@H](NC(=O)OC(C)(C)C)C(C)C)C3)cc(-c3ccccc3)nc2c1
b = COc1ccc2c(O[C@@H]3C[C@@H](CC(=O)NC4(C(=O)NS(=O)(=O)c5ccccc5)CC4)N(C(=O)[C@@H](NC(=O)OC(C)(C)C)C(C)C)C3)cc(-c3ccccc3)nc2c1
Which is greater in pKi, the first item a or the second item b ? Respond with the label that goes with your answer.
a

meta.source: ChEMBL document CHEMBL1150297
